molecular target: Pro-neuregulin-1, membrane-bound isoform (Homo sapiens); test: small molecules binding neuregulin-1 protein – biochemical, small-molecule microarray, fluorescence 635/667, psychiatric disease protein project, primary screen (AID 1075); conditions: NRG1 binding, 635 nm fluorescence, higher = more signal;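 further: score combines 667 nm spot fluorescence with signal to noise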
Kindly note that classification relies on composite z-score with these boundaries: low bin = under 0.3, mid bin = from 0.3 up to 1, high bin = 1 and over

Prompt line: // return the class label for CCCCCN1CC=CC23O[C@@H]4C=CCCOC(=O)C4[C@H]2C(=O)N(CCCCCCO)[C@@H]3C1=O (stereo partly drawn)
Response line: high bin

Prompt line: // return the class label for C[N+](C)(C)CCCCCCNC(=O)[C@@H]1C[C@@H]2C(=O)N3CCC[C@H]3C(=O)N2[C@@H]1c1ccc(O)cc1
Response line: mid bin

Prompt line: // return the class label for C=CCC(OC(C)=O)[C@@H]1[C@@H](N(Cc2ccc(-c3cccc(C(F)(F)F)c3)o2)C(=O)c2ccc(-c3ccccc3)cc2)c2cc(OCCCO)ccc2N1C(=O)Cc1ccc2ccccc2c1 (stereo partly drawn)
Response line: low bin

Prompt line: // return the class label for O=C1NC(=O)C2C1C=CC(C(O)c1ccco1)N2Nc1ccc(Cl)cc1Cl (stereo not drawn)
Response line: mid bin

Prompt line: // return the class label for COCCOC(=O)N1C(=O)[C@@]2(c3cc(C#CCNC(N)=O)ccc31)[C@H](C(N)=O)[C@H]1C(=O)O[C@H](c3ccccc3)[C@H](c3ccccc3)N1[C@@H]2c1ccccc1OCCO
Response line: mid bin

Prompt line: // return the class label for COC(=O)[C@@]1(Cc2ccc(F)cc2)[C@H]2c3cc(C(=O)N4CCCC4)n(CCc4c[nH]c5ccccc45)c3C[C@H]2CN1C(=O)c1ccccc1
Response line: high bin

Prompt line: // return the class label for CCCCCN1CC=CC23O[C@@H]4/C=C\CCC(C)OC(=O)C4[C@H]2C(=O)N(C(CO)C(C)C)[C@@H]3C1=O (stereo partly drawn)
Response line: high bin

Prompt line: // return the class label for C=C[C@H](C)[C@H](OC(=O)Nc1ccc(SC)cc1)c1ccc(OCCO)cc1
Response line: mid bin

Prompt line: // return the class label for COCCOC(=O)N1C(=O)[C@@]2(c3cc(C#CCC(C(=O)OC)C(=O)OC)ccc31)[C@H](c1ccc(OCCO)cc1)N1[C@H](c3ccccc3)[C@H](c3ccccc3)OC(=O)[C@H]1[C@@H]2C(=O)N1CCc2cc(OC)c(OC)cc2C1
Response line: high bin

Prompt line: // return the class label for C=C(COC)C(=O)CC[C@@H](OC(C)=O)c1cccc(OCCO)c1
Response line: low bin

Prompt line: // return the class label for [N-]=[N+]=Nc1ccccc1C[C@@]1(C(=O)N2CCOCC2)N=C(c2ccc(OCCCO)cc2)O[C@@H]1c1ccccc1
Response line: high bin

Prompt line: // return the class label for C=CC[C@@]1(C(=O)NCCCOC)N=C(c2ccc(OCCCO)cc2)O[C@@H]1c1ccccc1
Response line: high bin

Prompt line: // return the class label for C=C[C@@H](CO)N(Cc1ccc(OC)cc1)S(=O)(=O)c1ccc(Br)cc1
Response line: low bin

Prompt line: // return the class label for COc1cc2c(cc1O)C(c1ccc(CN3CCCC3)cc1)N(Cc1cc3c(cc1Br)OCO3)CC2 (stereo not drawn)
Response line: mid bin

Prompt line: // return the class label for OCCCC1=CC(c2ccc(CN3CCCC3)cc2)N(Cc2cc3c(cc2Br)OCO3)CC1 (stereo not drawn)
Response line: low bin

Prompt line: // return the class label for C=CCC(OC(C)=O)[C@@H]1[C@@H](N(Cc2ccc(-c3ccccc3)cc2)C(=O)c2ccc(-c3ccccc3)cc2)c2cc(OCCCO)ccc2N1C(=O)c1ccc2ccccc2c1 (stereo partly drawn)
Response line: low bin

Prompt line: // return the class label for O=C(C1N=C(c2ccc(OCCCO)cc2)N(c2ccccc2)O1)N1CCCCC1 (stereo not drawn)
Response line: high bin
